// provenance: the supplement of paper PMC9112550

Test system: Escherichia coli TOP10
assay_overview: shrunken log2 fold change of peptide-encoding DNA abundance (4.5 h post-induction vs induction); higher = less antimicrobial activity (less host growth inhibition)
conditions_used: time post-induction: 4.5 h; library: site-saturation at positions 5, 18, 19, 20
reported_endpoint: shrunken log2 fold change
One number for each entry.

          primary_sequence  numeric_result
0  RRIRIRPPRLPRPRPRPQSQPRP          -0.513
1  RRIRRRPPRLPRPRPRPCFQPRP         -0.0758
2  RRIRQRPPRLPRPRPRPMNHPRP          -0.337
3  RRIRLRPPRLPRPRPRPGNWPRP          0.0269
4  RRIRVRPPRLPRPRPRPQRNPRP         -0.0128

Below is a list of sequences. For each, state its recorded shrunken log2 fold change.
1. RRIRQRPPRLPRPRPRPGTWPRP
2. RRIRARPPRLPRPRPRPMVCPRP
3. RRIRRRPPRLPRPRPRPCHEPRP

Output line:
1: 0.0676; 2: 0.396; 3: -0.0891

Below is a list of sequences. For each, state its recorded shrunken log2 fold change.
1. RRIRDRPPRLPRPRPRPFETPRP
2. RRIRTRPPRLPRPRPRPLVPPRP
3. RRIRSRPPRLPRPRPRPCNTPRP
4. RRIRYRPPRLPRPRPRPKAIPRP

Output line:
1: -0.0134; 2: 0.193; 3: -0.324; 4: -0.497

Below is a list of sequences. For each, state its recorded shrunken log2 fold change.
1. RRIRDRPPRLPRPRPRPLMCPRP
2. RRIRVRPPRLPRPRPRPWSCPRP
3. RRIRYRPPRLPRPRPRPAMCPRP

Output line:
1: 0.498; 2: -0.155; 3: 0.00292

###

Tested on: Escherichia coli TOP10
assay_overview: shrunken log2 fold change of peptide-encoding DNA abundance (4.5 h post-induction vs induction); higher = less antimicrobial activity (less host growth inhibition)
conditions_used: time post-induction: 4.5 h; library: site-saturation at positions 5, 18, 19, 20
Assign class by shrunken log2 fold change: not lower than -0.008 means label 1; lower than -0.008 means label 0.

>>> print(df.to_string())
          primary_sequence  category_label
0  RRIRKRPPRLPRPRPRPITLPRP         label 0

Input line: Hi, just wondering whether RRIRTRPPRLPRPRPRPEEQPRP shows shrunken log2 fold change of -0.008 or higher.
Output line: label 1

###

Test system: Escherichia coli TOP10;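 also: peptides expressed intracellularly from a pBAD plasmid library in pooled LB shake-flask culture, induced with 0.3% L-arabinose, DNA abundance read by NGS, three biological replicates, DESeq2 with apeglm shrinkage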
assay_overview: shrunken log2 fold change of peptide-encoding DNA abundance (4.5 h post-induction vs induction); higher = less antimicrobial activity (less host growth inhibition)
conditions_used: time post-induction: 4.5 h; library: site-saturation at positions 5, 18, 19, 20
Classes (shrunken log2 fold change): lower band = under -0.08, central band = from -0.08 up to 0.4, upper band = 0.4 and over

For orientation, consider the following solved cases.
          primary_sequence  category_label
0  RRIRMRPPRLPRPRPRPAMFPRP    central band
1  RRIRMRPPRLPRPRPRPMIPPRP      lower band
2  RRIRMRPPRLPRPRPRPGVVPRP      upper band
3  RRIRPRPPRLPRPRPRPNSLPRP      lower band
4  RRIRNRPPRLPRPRPRPKCPPRP      lower band
5  RRIRIRPPRLPRPRPRPSVWPRP      lower band
6  RRIRWRPPRLPRPRPRPQCWPRP    central band
7  RRIRKRPPRLPRPRPRPFLDPRP    central band
8  RRIRARPPRLPRPRPRPPMKPRP    central band
9  RRIRVRPPRLPRPRPRPLDNPRP    central band

Input line: Determine which band this sequence sits in: RRIRLRPPRLPRPRPRPQYMPRP
Output line: central band

Input line: Same again, this time with RRIRHRPPRLPRPRPRPFLQPRP
Output line: central band

Input line: Same again, this time with RRIRMRPPRLPRPRPRPRALPRP
Output line: upper band

Input line: Same again, this time with RRIRARPPRLPRPRPRPSADPRP
Output line: upper band

Input line: Same again, this time with RRIRCRPPRLPRPRPRPNPRPRP
Output line: central band
